Just for reference, patent US20220175766A1 is where these values come from.

Assay: Phase 1a multiple ascending dose study (oral solution): plasma pharmacokinetics
Assay type: in vivo, human
Details: human, plasma, oral, 60 mg, Cohort 5, 60 mg; Day 1; Hour 0.5; read-out: Compound 1 concentration, Conc (SD)
MEASUREMENT KIND: concentration at 0.5 h (ng/mL)

> print(dat)
                              sample.smiles        measurement.kind  units.text  measured
1  CC(C)(C)OC(=O)N1CCN(Cc2ccn(Cc3ccc(Cl)cc3)c(=O)c2O)CC1  concentration at 0.5 h       ng/mL      4.83

---

Experiment: Phase 1a multiple ascending dose study (oral solution): plasma pharmacokinetics
Type: in vivo, human
Conditions: human, plasma, oral, 60 mg, Cohort 1, 60 mg; Day 1; Hour 6; read-out: Compound 1 concentration, Conc (SD)
MEASUREMENT KIND: concentration at 6 h

> print(dat)
                              sample.smiles      measurement.kind  measured
1  CC(C)(C)OC(=O)N1CCN(Cc2ccn(Cc3ccc(Cl)cc3)c(=O)c2O)CC1  concentration at 6 h   0 ng/mL
